tested on: TK-10; assay: NCI tumour cell line growth inhibition, 48 h
The source made the active and inactive calls. No stated cut-off is given here; in the data, active = GI50 up to about 1.1 µM and inactive = higher. Non-standard residues stand in square brackets, D forms with d. Residues, ends and D or L forms follow the SMILES beside them. *: point of attachment. Ac5c = NC1(C(=O)O)CCCC1; Boc = CC(C)(C)OC(=O)*; tBu = CC(C)(C)*
API: response.call in label 1 (active), label 0 (inactive)

Sample answers from the record:
compound	test.target	assigned.category
CC(C)c1ccc(C(c2c(O)oc3ccccc3c2=O)c2c(O)oc3ccccc3c2=O)cc1	TK-10	label 0
CC(=O)O[C@H]1C(=O)[C@@]2(C)[C@H]([C@H](OC(=O)c3ccccc3)[C@]3(O)C[C@H](OC(=O)[C@H](O)[C@@H](NC(=O)c4ccoc4)c4ccccc4)C(C)=C1C3(C)C)[C@]1(OC(C)=O)CO[C@@H]1C[C@@H]2O	TK-10	label 1
O=c1cc2ccccc2nn1Cc1ccccc1Cl	TK-10	label 0
O=C1Nc2ccccc2/C1=C1/Nc2ccccc2/C1=N/OCCOCCO	TK-10	label 0
COC(=O)c1c(C(=O)OC)c2ccccn2c1-c1cc(OC)c(Br)c(=O)o1	TK-10	label 0

query: So what was the verdict on COc1ccc2c(c1)CCCC(Br)C2=O (stereo unspecified) in this test?
result: label 0

query: # repeat for CC(=O)C(C(=N)C#N)C(=O)Nc1ccccc1 (stereo unspecified)
result: label 0

query: Can you handle `Cc1cc(O)c2c(c1O)C(=O)c1c(O)ccc(O)c1C2=O` next?
result: label 0

query: Further, for `Nc1n[n+](CC(=O)c2ccccc2)c2sc(-c3ccccc3)nn12` ?
result: label 0

query: Please answer likewise for `CCOC(=O)c1c(-c2ccccc2)oc(-c2ccccc2)c1C(=O)OCC`
result: label 0

query: Proceed to CC(C)[Si](Oc1ccc(CC2N(C(=O)c3ccc([N+](=O)[O-])cc3)C(CCc3ccccc3)CC2(C)C=O)cc1)(C(C)C)C(C)C (stereo unspecified)
result: label 0

query: Likewise for `CC1=NN(c2nc(N)nc(CS(C)(=O)=O)n2)C(C)(C)C1` ?
result: label 0

query: Also check CC(OC(C)(C)C)C1NC(=O)C(CCCCNC(=O)OC(C)(C)C)NC(=O)C(Cc2c[nH]c3ccccc23)NC(=O)C(Cc2ccccc2)NC(=O)C2(CCCC2)NC(=O)C(Cc2ccccc2)NC1=O (stereo unspecified) (cyclo([Ac5c]FWK(Boc)T(tBu)F); configuration not given here)
result: label 0

====

system: CCRF-CEM; experiment: NCI tumour cell line growth inhibition, 48 h
The source made the active and inactive calls. Rule as the data show it: active = GI50 up to about 1.1 µM and inactive = higher.
quantity: GI50

Use the examples below as a reference point.
molecule	observed.value
COC(=O)C1(F)C(=O)NC(=O)NC1OC (stereo unspecified)	3.08 µM (inactive)
CC1=C/C(O)CC(=O)Cc2nc(co2)C(=O)N2CCC=C2C(=O)OC(C(C)C)C(C)/C=C\C(=O)NC/C=C\1 (stereo unspecified)	21.6 µM (inactive)
O=C[C@@H](CO)O[C@H](C=O)c1c[nH]c(=O)[nH]c1=O	34.9 µM (inactive)
O=C(Cc1ccccc1)NN1C(=O)C(Cl)C1c1ccc(Cl)cc1 (stereo unspecified)	> 100 µM (inactive)
N#Cc1c(O)nc2nn3c4ccc5ccccc5c4nnc3c2c1-c1ccc(Cl)cc1	1.56 µM (inactive)

query: What does the data say about its GI50? Entry: `O=c1c2ccccc2nc(-c2ccccc2)n1NC(=S)Nc1cccc(Cl)c1`
result: > 100 µM (inactive)

query: Entry to check: COC(=N)c1csc(C2OC(CO)C(O)C2O)n1 (stereo unspecified)
result: 86.5 µM (inactive)

query: Please answer likewise for CC(=O)N1CN2C(=O)CCC2c2cc(C)ccc21 (stereo unspecified)
result: > 100 µM (inactive)

query: Let us now turn to `CC(=O)OCCOCNC(=S)N/N=C(\C)c1cnc2ccccc2n1`
result: 7.46 µM (inactive)

query: And for `Cc1ccc(S(=O)(=O)NC(=O)N[C@@H](Cc2c[nH]cn2)C(=O)O)cc1` ?
result: > 100 µM (inactive)

query: Would you kindly repeat that for `COc1ccc(/N=C2\S/C(=N\C(=N\c3ccccc3)SCc3ccccc3)N(c3ccccc3)\C2=N/c2ccc(OC)cc2)cc1` ?
result: > 100 µM (inactive)
